- test target: F508delCFTR (Homo sapiens, UniProt P13569, DEL508-508)
- Construct: expressed in transfected cells; host or cells: CFBE41o- human lung-derived epithelial cells (CFBE4lo-F508delCFTR-HRP), doxycycline-inducible
- Sequence (P13569 with tags, fused parts or gaps DEL508-508): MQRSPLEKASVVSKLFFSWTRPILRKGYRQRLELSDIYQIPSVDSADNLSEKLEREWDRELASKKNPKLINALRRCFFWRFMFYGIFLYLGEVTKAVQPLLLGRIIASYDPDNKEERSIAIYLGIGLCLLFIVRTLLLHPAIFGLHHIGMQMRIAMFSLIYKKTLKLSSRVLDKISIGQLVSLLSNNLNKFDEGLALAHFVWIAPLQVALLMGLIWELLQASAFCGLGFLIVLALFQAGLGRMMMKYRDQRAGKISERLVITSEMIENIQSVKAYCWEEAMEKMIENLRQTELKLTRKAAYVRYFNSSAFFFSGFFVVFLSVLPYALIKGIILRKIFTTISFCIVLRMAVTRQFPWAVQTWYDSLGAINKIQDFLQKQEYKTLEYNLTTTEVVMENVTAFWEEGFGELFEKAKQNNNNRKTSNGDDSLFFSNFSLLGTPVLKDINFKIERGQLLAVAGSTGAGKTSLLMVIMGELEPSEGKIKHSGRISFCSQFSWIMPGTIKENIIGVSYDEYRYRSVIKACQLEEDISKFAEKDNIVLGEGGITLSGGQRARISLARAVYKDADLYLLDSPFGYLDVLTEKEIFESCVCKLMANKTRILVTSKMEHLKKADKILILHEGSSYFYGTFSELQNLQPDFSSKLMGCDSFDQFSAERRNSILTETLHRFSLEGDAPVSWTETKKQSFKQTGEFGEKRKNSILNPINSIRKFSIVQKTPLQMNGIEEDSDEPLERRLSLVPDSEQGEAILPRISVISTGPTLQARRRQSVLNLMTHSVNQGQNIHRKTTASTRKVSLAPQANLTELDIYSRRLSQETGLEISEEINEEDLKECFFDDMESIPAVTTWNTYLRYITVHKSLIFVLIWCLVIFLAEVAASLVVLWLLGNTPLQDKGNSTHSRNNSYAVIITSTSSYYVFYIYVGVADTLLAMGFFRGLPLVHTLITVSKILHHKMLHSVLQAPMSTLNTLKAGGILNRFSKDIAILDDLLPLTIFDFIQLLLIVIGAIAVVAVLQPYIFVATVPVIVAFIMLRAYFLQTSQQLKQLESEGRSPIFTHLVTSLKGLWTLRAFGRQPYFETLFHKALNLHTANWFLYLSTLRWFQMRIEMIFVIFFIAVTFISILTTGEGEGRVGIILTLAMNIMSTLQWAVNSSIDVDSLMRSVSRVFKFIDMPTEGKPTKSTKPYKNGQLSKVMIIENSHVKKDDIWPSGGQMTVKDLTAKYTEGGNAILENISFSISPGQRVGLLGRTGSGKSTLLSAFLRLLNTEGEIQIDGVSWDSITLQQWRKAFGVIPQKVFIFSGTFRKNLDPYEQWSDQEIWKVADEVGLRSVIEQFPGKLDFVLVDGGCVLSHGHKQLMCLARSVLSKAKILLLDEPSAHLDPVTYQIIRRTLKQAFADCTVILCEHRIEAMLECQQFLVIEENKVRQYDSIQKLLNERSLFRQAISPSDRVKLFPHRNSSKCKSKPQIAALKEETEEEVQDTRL
- experiment summary: Cell Surface Expression-Horse Radish Peroxidase (CSE-HRP) Assay
- Type: cell-based
- condition details: with co-corrector (2 μM of 3-[(2R,4R)-4-({[1-(2,2-difluoro-1,3-benzodioxol-5-yl)cyclopropyl]carbonyl}amino)-7-methoxy-3,4-dihydro-2H-chromen-2-yl]benzoic acid); read-out: EC50 (with co-corrector)
Entries annotated with measured EC50

Answered cases to consult:
- COc1ccc(C(C)(C)C)cc1CN[C@H]1[C@H](C(C)(C)C)[C@@H](C(=O)O)N(C(=O)C2CC(F)(F)C2)[C@H]1c1ccccc1: 1 to 10 µM
- COc1ncc(C(C)(C)C)cc1CN[C@H]1[C@H](C(C)(C)C)[C@@H](C(=O)O)N(C(=O)C2CCCCC2)[C@H]1c1cccnc1OC: 1 to 10 µM

INPUT: Enter measured EC50, system F508delCFTR (Homo sapiens, UniProt P13569, DEL508-508), for the compound shown: C#CCOC(=O)N1[C@H](C(=O)O)[C@@H](C(C)(C)C)[C@H](NCc2cc(C(C)(C)C)ccc2OC)[C@@H]1c1ccccc1
OUTPUT: 1 to 10 µM
